# test.system: T1, EsCas13d, nuclease-dead (Eubacterium siraeum, UniProt B0MS50, R295A;H300A;R849A;H854A)
# T1 sequence: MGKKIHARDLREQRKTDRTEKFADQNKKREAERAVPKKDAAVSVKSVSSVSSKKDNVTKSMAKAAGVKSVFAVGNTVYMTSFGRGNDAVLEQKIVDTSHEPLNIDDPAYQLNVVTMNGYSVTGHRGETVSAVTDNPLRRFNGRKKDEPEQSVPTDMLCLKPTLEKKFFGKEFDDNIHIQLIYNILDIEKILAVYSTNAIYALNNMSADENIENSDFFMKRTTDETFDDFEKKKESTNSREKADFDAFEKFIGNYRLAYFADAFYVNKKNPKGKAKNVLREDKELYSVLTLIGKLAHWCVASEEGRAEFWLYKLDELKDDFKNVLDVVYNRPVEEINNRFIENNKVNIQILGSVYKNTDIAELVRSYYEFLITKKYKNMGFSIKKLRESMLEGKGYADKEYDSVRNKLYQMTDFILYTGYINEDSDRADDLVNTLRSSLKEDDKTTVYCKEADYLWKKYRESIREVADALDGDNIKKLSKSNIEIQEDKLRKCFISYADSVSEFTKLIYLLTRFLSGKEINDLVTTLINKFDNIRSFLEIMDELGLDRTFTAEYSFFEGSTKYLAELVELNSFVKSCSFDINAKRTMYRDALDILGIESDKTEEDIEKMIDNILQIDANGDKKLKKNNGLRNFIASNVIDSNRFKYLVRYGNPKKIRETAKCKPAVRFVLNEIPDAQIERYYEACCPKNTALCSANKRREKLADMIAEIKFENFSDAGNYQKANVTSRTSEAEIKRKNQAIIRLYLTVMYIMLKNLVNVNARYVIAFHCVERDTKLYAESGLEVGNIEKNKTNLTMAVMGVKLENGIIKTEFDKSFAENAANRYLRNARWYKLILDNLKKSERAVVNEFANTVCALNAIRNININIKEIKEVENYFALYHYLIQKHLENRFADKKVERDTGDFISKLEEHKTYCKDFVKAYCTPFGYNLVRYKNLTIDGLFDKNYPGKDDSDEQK
# protocol.notes: crRNA (strand 1, pre-loaded); Mg2+; 40 mM Tris-HCl pH 7.5, 150 mM NaCl, 6 mM MgCl2, 1 mM DTT, 0.1% Tween-20, 0.2 mg/ml BSA; 25 C; 10 min per concentration, then washed
# measurement.context: tags: His6-TwinStrep-SUMO cleaved; N-terminal SNAP kept (SNAP-Surface 488); label: 3' end held by stalled T7 RNA polymerase
Parameter Kd: see the listing below.
Kindly answer with a numeric value in nM, unit omitted.

Record excerpt, results attached:
target 3 A11C,U15C (mixed) RNA 1: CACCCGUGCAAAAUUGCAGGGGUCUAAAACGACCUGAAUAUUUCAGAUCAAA RNA 2: GGGAAUGGAUCCACAUCUACGAAUUCGUUUUUGAUCCGAACUAUUCAGGUCUGCAGAUCGGAAGAGCACACGU :: 50
target 2 MT 5'PFS CUC 3'PFS AAU (mixed) RNA 1: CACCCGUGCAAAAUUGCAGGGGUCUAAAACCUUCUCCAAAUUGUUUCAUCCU RNA 2: GGGAAUGGAUCCACAUCUACGAAUUCCUCAGGAUGAAACAAUUUGGAGAAGAAUAGAUCGGAAGAGCACACGU :: 2.32
target 1 MT 5'PFS UCG 3'PFS AUU (mixed) RNA 1: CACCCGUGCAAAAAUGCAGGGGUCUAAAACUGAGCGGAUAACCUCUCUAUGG RNA 2: GGGAAUGGAUCCACAUCUACGAAUUCUCGCCAUAGAGAGGUUAUCCGCUCAAUUAGAUCGGAAGAGCACACGU :: 32.5

Q. Fill blank: measured Kd of the binder target 1 MT 5'PFS GUA 3'PFS AUU (mixed) RNA 1: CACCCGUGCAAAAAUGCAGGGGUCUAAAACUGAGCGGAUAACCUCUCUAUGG RNA 2: GGGAAUGGAUCCACAUCUACGAAUUCGUACCAUAGAGAGGUUAUCCGCUCAAUUAGAUCGGAAGAGCACACGU is ____.
A. 12.9
